target: M. tuberculosis DNA gyrase holoenzyme (GyrB ATPase activity) (Mycobacterium tuberculosis, UniProt P9WG45); experiment: biochemical; settings: triplicate, at least 11 inhibitor concentrations; read-out: IC50 for inhibition of M. tuberculosis DNA gyrase ATPase activity
Sequence (P9WG45 whole entry, looked up): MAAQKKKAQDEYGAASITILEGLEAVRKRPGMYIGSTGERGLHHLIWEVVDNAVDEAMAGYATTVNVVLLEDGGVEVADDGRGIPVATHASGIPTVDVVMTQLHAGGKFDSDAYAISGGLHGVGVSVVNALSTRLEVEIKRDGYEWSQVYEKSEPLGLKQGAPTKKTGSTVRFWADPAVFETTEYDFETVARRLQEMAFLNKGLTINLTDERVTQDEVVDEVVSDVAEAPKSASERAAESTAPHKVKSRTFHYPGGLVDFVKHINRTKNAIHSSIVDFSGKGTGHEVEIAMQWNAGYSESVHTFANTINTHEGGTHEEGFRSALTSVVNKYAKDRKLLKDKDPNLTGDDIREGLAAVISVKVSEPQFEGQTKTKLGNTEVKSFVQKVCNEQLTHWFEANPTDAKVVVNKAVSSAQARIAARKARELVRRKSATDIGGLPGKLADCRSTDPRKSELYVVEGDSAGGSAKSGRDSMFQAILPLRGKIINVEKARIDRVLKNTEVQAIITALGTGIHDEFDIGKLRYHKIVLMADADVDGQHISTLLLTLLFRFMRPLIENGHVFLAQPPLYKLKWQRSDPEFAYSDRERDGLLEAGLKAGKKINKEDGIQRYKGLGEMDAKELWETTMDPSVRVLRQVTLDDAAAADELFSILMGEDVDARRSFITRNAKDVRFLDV
pIC50: −log10 of the molar value.
ATTRIBUTE MEASURED: pIC50

INSERT INTO measurements (compound, observed) VALUES
  ('Cc1ccc2c(c1)c(-c1ccccc1)c(-c1ccccc1)n2CC(O)CN(CCO)CCO (stereo not shown) [G24, reference compound]', 5.57),
  ('CCn1c2ccccc2c2cc(CNCCNCC(C)O)ccc21 (stereo not shown) [Compound 8]', 6.59),
  ('OC(CNCCC1C=Nc2ccccc21)Cn1c2ccccc2c2ccccc21 (stereo not shown) [Compound 1]', 6.14),
  ('Cc1ccc2c(c1)c(-c1ccccc1)c(-c1ccccc1)n2CC(O)CNC(CO)(CO)CO (stereo not shown) [Compound 14]', 7.10),
  ('OC(CNCCOc1ccccc1)Cn1c2ccccc2c2ccccc21 (stereo not shown) [Compound 2]', 5.87),
  ('OC(CNCc1ccccc1)Cn1c2ccccc2c2ccccc21 (stereo not shown) [Compound 3]', 5.42),
  ('OCCNCC(O)Cn1c(-c2ccccc2)c(-c2ccccc2)c2ccc3ccccc3c21 (stereo not shown) [Compound 11]', 6.25);
